Experiment: Metabolic stability in liver microsomes (unknown origin) assessed as half life incubated for 60 mins by LC-MS/MS analysis
Assay type: ADME, Microsome

compound	half-life
CC(C)[C@H]1CC[C@H](C)C[C@H]1N	> 2.42 h
CC(C)[C@@H]1CC[C@@H](C)C[C@@H]1OC(=O)c1ccc([N+](=O)[O-])cc1	0.416 h
CC(C)[C@H]1CC[C@@H](C)C[C@@H]1N	> 2.42 h
O=C(O)Cc1ccccc1Nc1c(Cl)cccc1Cl [DICLOFENAC]	0.0886 h
CC(C)[C@H]1CC[C@H](C)C[C@@H]1N	> 2.42 h
CC(C)[C@H]1CC[C@@H](C)C[C@H]1N	> 2.42 h
CC(C)[C@H]1CC[C@@H](C)C[C@@H]1N1C(=O)c2ccccc2C1=O	> 2.42 h
CC(C)[C@@H]1CC[C@@H](C)C[C@H]1OC(=O)c1ccc([N+](=O)[O-])cc1	0.419 h
CC(C)[C@H]1CC[C@H](C)C[C@H]1N1C(=O)c2ccccc2C1=O	> 2.42 h

---

Papp B→A at 2 h, 2 µM for assorted compounds
Test: Apparent permeability across basolateral to apical side in human Caco-2 cells at 2 uM incubated for 2 hrs by LC-MS/MS analysis
Assay type: ADME, cell-based
Settings: Caco-2

compound	Papp B→A at 2 h, 2 µM
C[C@H]1O[C@@H](O[C@H]2[C@@H](O)C[C@H](O[C@H]3[C@@H](O)C[C@H](O[C@H]4CC[C@@]5(C)[C@H](CC[C@@H]6[C@@H]5C[C@@H](O)[C@]5(C)[C@@H](C7=CC(=O)OC7)CC[C@]65O)C4)O[C@@H]3C)O[C@@H]2C)C[C@H](O)[C@@H]1O [DIGOXIN]	18.6 ×10⁻⁶ cm/s
CC(C)[C@H]1CC[C@@H](C)C[C@H]1N	24.7 ×10⁻⁶ cm/s
CC(C)[C@@H]1CC[C@@H](C)C[C@H]1OC(=O)c1ccc([N+](=O)[O-])cc1	11.2 ×10⁻⁶ cm/s
CC(C)[C@@H]1CC[C@@H](C)C[C@@H]1OC(=O)c1ccc([N+](=O)[O-])cc1	12.1 ×10⁻⁶ cm/s
CC(C)[C@H]1CC[C@@H](C)C[C@@H]1N1C(=O)c2ccccc2C1=O	13.3 ×10⁻⁶ cm/s
CC(C)[C@H]1CC[C@H](C)C[C@@H]1N	23.5 ×10⁻⁶ cm/s
CC(C)[C@H]1CC[C@H](C)C[C@H]1N1C(=O)c2ccccc2C1=O	12.6 ×10⁻⁶ cm/s

---

Experiment: Efflux ratio of apparent permeability from basolateral to apical side over apical to basolateral side in human Caco-2 cells at 2 uM incubated for 2 hr by LC-MS/MS analysis
Assay type: ADME, cell-based
Settings: Caco-2

compound structure	efflux ratio at 2 h, 2 µM
CC(C)[C@@H]1CC[C@@H](C)C[C@@H]1OC(=O)c1ccc([N+](=O)[O-])cc1	0.51
CC(C)[C@H]1CC[C@H](C)C[C@H]1N1C(=O)c2ccccc2C1=O	0.52
C[C@H]1O[C@@H](O[C@H]2[C@@H](O)C[C@H](O[C@H]3[C@@H](O)C[C@H](O[C@H]4CC[C@@]5(C)[C@H](CC[C@@H]6[C@@H]5C[C@@H](O)[C@]5(C)[C@@H](C7=CC(=O)OC7)CC[C@]65O)C4)O[C@@H]3C)O[C@@H]2C)C[C@H](O)[C@@H]1O	127
CC(C)[C@H]1CC[C@@H](C)C[C@@H]1N1C(=O)c2ccccc2C1=O	0.52
CC(C)[C@H]1CC[C@H](C)C[C@@H]1N	0.53
CC(C)[C@H]1CC[C@@H](C)C[C@H]1N	0.59
CC(C)[C@@H]1CC[C@@H](C)C[C@H]1OC(=O)c1ccc([N+](=O)[O-])cc1	0.48

---

Experiment: Apparent permeability across apical to basolateral side in human Caco-2 cells at 2 uM incubated for 2 hrs by LC-MS/MS analysis
Assay type: ADME, cell-based
Conditions: Caco-2

compound	Papp A→B at 2 h, 2 µM (×10⁻⁶ cm/s)
CC(C)[C@H]1CC[C@@H](C)C[C@H]1N	41.8
CC(C)(C)NCC(O)COc1cccc2c1CC(O)C(O)C2 (centres undefined)	0.04
CC(C)[C@@H]1CC[C@@H](C)C[C@H]1OC(=O)c1ccc([N+](=O)[O-])cc1	24
CC(C)[C@H]1CC[C@H](C)C[C@H]1N1C(=O)c2ccccc2C1=O	25.7

---

remaining at 1 h for assorted molecules
Assay: Metabolic stability in liver microsomes (unknown origin) assessed as compound remaining incubated for 60 mins by LC-MS/MS analysis
Assay type: ADME, Microsome
Details: read-out: Stability

compound structure	unit of measurement	remaining at 1 h
CC(C)[C@H]1CC[C@H](C)C[C@H]1N1C(=O)c2ccccc2C1=O	%	80.4
O=C(O)Cc1ccccc1Nc1c(Cl)cccc1Cl	%	97.8
CC(C)[C@H]1CC[C@@H](C)C[C@@H]1N	%	75.4
CC(C)[C@@H]1CC[C@@H](C)C[C@H]1OC(=O)c1ccc([N+](=O)[O-])cc1	%	32.6
CC(C)[C@@H]1CC[C@@H](C)C[C@@H]1OC(=O)c1ccc([N+](=O)[O-])cc1	%	33.3
C[C@]12CC[C@H]3[C@@H](CCC4=CC(=O)CC[C@@]43C)[C@@H]1CC[C@@H]2O	%	91
CC(C)[C@H]1CC[C@H](C)C[C@@H]1N	%	79.4
CC(C)[C@H]1CC[C@H](C)C[C@H]1N	%	81.8
CC(C)[C@H]1CC[C@@H](C)C[C@@H]1N1C(=O)c2ccccc2C1=O	%	82.8
CC(C)[C@H]1CC[C@@H](C)C[C@H]1N	%	79.4
